- measured target: TNKS1 (Homo sapiens, UniProt O95271)
- Construct: GST-tagged Tnks-1 (1023-1327 aa, prepared in-house); made in house
- Sequence (O95271 1023-1327): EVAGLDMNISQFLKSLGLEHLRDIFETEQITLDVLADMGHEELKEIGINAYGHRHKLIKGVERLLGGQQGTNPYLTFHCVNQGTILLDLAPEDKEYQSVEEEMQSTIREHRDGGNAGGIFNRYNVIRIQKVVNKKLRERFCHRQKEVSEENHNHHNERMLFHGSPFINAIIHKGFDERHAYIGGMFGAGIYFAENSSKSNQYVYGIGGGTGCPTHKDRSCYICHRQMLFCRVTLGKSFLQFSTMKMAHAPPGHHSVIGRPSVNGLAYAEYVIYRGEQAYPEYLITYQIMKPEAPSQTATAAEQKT
- assay protocol: TNKS1 activity ELISA (autoparsylation assay)
- Assay type: biochemical
parameter measured: IC50 (nM)
Give bare numbers, in nM.

Illustrative cases are given below, each with its answer.
> print(dat)
                            compound.string  parameter.measured  observed
1  COc1ccc(C(=O)C2CCN(C(=O)CCCc3nc4ccccc4c(=O)[nH]3)CC2)cc1                IC50      0.23
2  N#Cc1ccc(OC2CCN(C(=O)CCCc3nc4c(F)cccc4c(=O)[nH]3)CC2)cc1                IC50       150
3  CCn1cc(-c2ccc(C(=O)C3CCN(C(=O)CCCc4nc5ccccc5c(=O)[nH]4)CC3)cc2)cn1                IC50       0.1
4  Nc1ncc(C2CCN(C(=O)CCCc3nc4ccccc4c(=O)[nH]3)CC2)cc1-c1ncccn1                IC50      0.41
5  Cn1ccnc1C(=O)C1CCN(C(=O)CCCc2nc3ccccc3c(=O)[nH]2)CC1                IC50        82
6  N#Cc1cc(C2CCN(C(=O)CCCc3nc4ccccc4c(=O)[nH]3)CC2)cnc1N                IC50       1.9
7  Cc1cccc(C(=O)C2CCN(C(=O)CCCc3nc4ccccc4c(=O)[nH]3)CC2)c1                IC50      0.22

Please examine the following record next.
What measured IC50 goes with `N#Cc1ccc(OC2CCN(C(=O)CCCc3nc4ccccc4c(=O)[nH]3)CC2)cc1` ?
150
